molecular target: MALT-1 (Isoform 1) (Homo sapiens); construct: using recombinant MALT-1 (Isoform 1, aa-840) generated in house; made in house; experiment: MALT-1 (Isoform 1) enzyme fluorescent biochemical assay; conditions: test compound 1 μM; recombinant MALT-1 1.5 nM; read-out: Percent Inhibition (1 μM)
Measure: inhibition at 1 µM (%)

# example entries with known answers
CC(C)C(c1cccc(F)c1)n1ncc(C(=O)Nc2cnc(-n3nccn3)c(C#N)c2)c1C(F)(F)F (stereo not shown) ... 23
O=C(Nc1cc(C(F)(F)F)cnn1)c1cnn(Cc2cccc(F)c2Cl)c1C(F)(F)F ... 13
O=C(Nc1cnnc(C(F)(F)F)c1)c1cnn(Cc2cccc(F)c2Cl)c1C(F)(F)F ... 60
CC(c1cccc(F)c1)n1ncc(C(=O)Nc2cnc(-n3nccn3)c(C#N)c2)c1C(F)(F)F (racemic) ... 83
COc1ncc(NC(=O)c2cnn(Cc3cccc(F)c3Cl)c2C(F)(F)F)cc1Cl ... 81

(a) O=C(Nc1cnc(-n2nccn2)c(Cl)c1)c1cnn(Cc2cccc(F)c2)c1C(F)(F)F
(b) N#Cc1cc(NC(=O)c2cnn(Cc3cccc(F)c3Cl)c2C(F)(F)F)cnc1-c1ccsc1
Field: lower inhibition at 1 µM | Options: a / b Lab log: write the label of the selected item as the result. b

---

molecular target: MALT-1 (Isoform 1) (Homo sapiens, UniProt Q9UDY8); construct: using recombinant MALT-1 (Isoform 1, aa-840) generated in house; made in house; assay: MALT-1 (Isoform 1) enzyme fluorescent biochemical assay; details: test compound 1 μM; recombinant MALT-1 1.5 nM; read-out: Percent Inhibition (1 μM)
Sequence (Q9UDY8 whole entry, canonical isoform): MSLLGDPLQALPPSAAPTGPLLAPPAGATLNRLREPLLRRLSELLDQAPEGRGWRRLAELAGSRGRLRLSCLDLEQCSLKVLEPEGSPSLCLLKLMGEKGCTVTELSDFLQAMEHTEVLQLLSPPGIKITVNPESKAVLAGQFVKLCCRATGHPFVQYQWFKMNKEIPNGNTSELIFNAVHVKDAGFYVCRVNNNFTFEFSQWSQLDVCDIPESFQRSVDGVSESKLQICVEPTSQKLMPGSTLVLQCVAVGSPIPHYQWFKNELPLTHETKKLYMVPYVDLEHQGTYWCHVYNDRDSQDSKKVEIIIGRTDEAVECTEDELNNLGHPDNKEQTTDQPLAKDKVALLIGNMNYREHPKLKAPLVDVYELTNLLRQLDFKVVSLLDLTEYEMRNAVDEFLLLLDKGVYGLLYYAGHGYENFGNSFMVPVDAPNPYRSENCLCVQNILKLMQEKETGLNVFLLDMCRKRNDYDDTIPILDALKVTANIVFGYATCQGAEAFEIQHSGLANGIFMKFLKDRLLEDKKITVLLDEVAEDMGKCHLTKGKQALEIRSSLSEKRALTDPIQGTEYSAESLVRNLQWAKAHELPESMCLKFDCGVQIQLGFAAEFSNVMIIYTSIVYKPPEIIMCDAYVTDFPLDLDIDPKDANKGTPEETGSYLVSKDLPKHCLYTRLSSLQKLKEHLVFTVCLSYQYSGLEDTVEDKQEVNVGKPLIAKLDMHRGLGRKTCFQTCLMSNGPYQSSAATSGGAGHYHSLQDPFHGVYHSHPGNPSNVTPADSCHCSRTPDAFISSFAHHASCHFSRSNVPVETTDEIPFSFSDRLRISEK
Measure: inhibition at 1 µM (%)

CC(c1cccc(F)c1)n1ncc(C(=O)Nc2cnc(-n3nccn3)c(Cl)c2)c1C(F)(F)F (single isomer, unassigned) [Compound 4b] ... 94

(1) N#Cc1cc(NC(=O)c2cnn(Cc3cccc(F)c3C(F)(F)F)c2C(F)(F)F)cnc1-n1nccn1 [Compound 33]
(2) O=C(Nc1cncnc1)c1cnn(Cc2cccc(F)c2Cl)c1C(F)(F)F [Compound 41]
(3) COc1ncc(NC(=O)c2cnn(Cc3cccc(F)c3)c2C(F)(F)F)cc1Cl [Compound 22]
(4) O=C(Nc1ccnc(C(F)(F)F)c1)c1cnn(Cc2cccc(F)c2)c1C(F)(F)F [Compound 19]
(5) CC(c1cccc(C#N)c1)n1ncc(C(=O)Nc2cnc(-n3nccn3)c(C#N)c2)c1C(F)(F)F (stereo not drawn) [Compound 50]
Parameters: sort_field (inhibition at 1 µM), sort_dir (desc). Response field: labels, in requested order. 1, 5, 3, 4, 2
(1: 99%, 5: 65%, 3: 41%, 4: 22%, 2: 14%)

---

Each entry below lists one item and its recorded IC50 value.
molecular target: MALT-1 (Isoform 1) (Homo sapiens); construct: using recombinant MALT-1 (Isoform 1, aa-840) generated in house; experiment: MALT-1 (Isoform 1) enzyme fluorescent biochemical assay; conditions: dose-response, sigmoidal curve fit; reported as groups A, B, C

# example entries with known answers
CC(c1ccccc1)n1ncc(C(=O)Nc2cnc(-n3nccn3)c(Cl)c2)c1C(F)(F)F (single isomer, unassigned) [Compound 5b] ... < 0.25 µM
N#Cc1cc(NC(=O)c2cnn(Cc3cccc(C(F)(F)F)c3)c2C(F)(F)F)cnc1-n1nccn1 ... > 1 µM
N#Cc1cc(NC(=O)c2cnn(Cc3cc(F)ccc3F)c2C(F)(F)F)cnc1-n1nccn1 ... 0.251 to 1 µM
CC(c1ccccc1)n1ncc(C(=O)Nc2cnc(-n3nccn3)c(Cl)c2)c1C(F)(F)F (single isomer, unassigned) [Compound 5a] ... 0.251 to 1 µM

Under MALT-1 (Isoform 1) (Homo sapiens), report IC50 for O=C(Nc1cnc(-n2nccn2)c(Cl)c1)c1cnn(Cc2cccc(F)c2)c1C(F)(F)F < 0.25 µM

Under MALT-1 (Isoform 1) (Homo sapiens), report IC50 for CC(c1cccc(F)c1)n1ncc(C(=O)Nc2cnc(-n3nccn3)c(C#N)c2)c1C(F)(F)F (single isomer, unassigned) [Compound 3b] < 0.25 µM

Under MALT-1 (Isoform 1) (Homo sapiens), report IC50 for N#Cc1cc(NC(=O)c2cnn(Cc3cccc(F)c3)c2C(F)(F)F)cnc1-n1nccn1 < 0.25 µM

Under MALT-1 (Isoform 1) (Homo sapiens), report IC50 for N#Cc1cc(NC(=O)c2cnn(Cc3ccc(F)c(Cl)c3)c2C(F)(F)F)cnc1-n1nccn1 > 1 µM

Under MALT-1 (Isoform 1) (Homo sapiens), report IC50 for N#Cc1cc(NC(=O)c2cnn(Cc3cccc(F)c3Br)c2C(F)(F)F)cnc1-n1nccn1 < 0.25 µM

Under MALT-1 (Isoform 1) (Homo sapiens), report IC50 for CC(c1cccc(Cl)c1)n1ncc(C(=O)Nc2cnc(-n3nccn3)c(C#N)c2)c1C(F)(F)F (stereo not shown) < 0.25 µM

Under MALT-1 (Isoform 1) (Homo sapiens), report IC50 for O=C(Nc1ccnc(C(F)(F)F)c1)c1cnn(Cc2cccc(F)c2Cl)c1C(F)(F)F 0.251 to 1 µM

Under MALT-1 (Isoform 1) (Homo sapiens), report IC50 for N#Cc1cc(NC(=O)c2cnn(Cc3cccnc3)c2C(F)(F)F)cnc1-n1nccn1 > 1 µM

Under MALT-1 (Isoform 1) (Homo sapiens), report IC50 for N#Cc1cc(NC(=O)c2cnn(Cc3cccc(Cl)c3)c2C(F)(F)F)cnc1-n1nccn1 < 0.25 µM
